Listed here are molecules together with their documented IC50.
- Test system: GM1 production in Jurkat cells
- Protocol details: cells
- Type: cell-based
- Run parameters: Homo sapiens, Jurkat, 72 h
Observable: IC50 (nM)

>  <Molecule>
CC1(C)COc2cc(-c3cncs3)ccc2C1NC(=O)O[C@@H]1CN2CCC1CC2 (stereo partly shown)

>  <Observable>
IC50

>  <Numeric result>
24.1

$$$$
>  <Molecule>
CSc1ccc(-c2ccc3c(c2)C(NC(=O)O[C@@H]2CN4CCC2CC4)CCO3)cc1 (stereo partly shown)

>  <Observable>
IC50

>  <Numeric result>
502

$$$$
>  <Molecule>
COc1ccc(Cl)c(-c2ccc3c(c2)OCCC3(C)NC(=O)O[C@@H]2CN3CCC2CC3)c1 (stereo partly shown)

>  <Observable>
IC50

>  <Numeric result>
17.5

$$$$
>  <Molecule>
CCc1ccc(/C=C/c2ccc3c(c2)OCC(C)(C)C3NC(=O)O[C@@H]2CN3CCC2CC3)cc1 (stereo partly shown)

>  <Observable>
IC50

>  <Numeric result>
1

$$$$
>  <Molecule>
CCOc1ccc(-c2ccc3c(c2)OCC(C)(C)C3NC(=O)O[C@@H]2CN3CCC2CC3)cc1 (stereo partly shown)

>  <Observable>
IC50

>  <Numeric result>
0.01

$$$$
>  <Molecule>
CC1(C)COc2cc(-c3ccc(Cl)cc3)ccc2C1NC(=O)O[C@@H]1CN2CCC1CC2 (stereo partly shown)

>  <Observable>
IC50

>  <Numeric result>
0.03

$$$$
>  <Molecule>
COCOc1cccc(-c2ccc3c(c2)OCCC3NC(=O)O[C@@H]2CN3CCC2CC3)c1 (stereo partly shown)

>  <Observable>
IC50

>  <Numeric result>
7.18

$$$$

---

- Study system: glucosylceramide synthase (GCS) (Homo sapiens)
- Construct: The obtained supernatant was used
- Sequence (Q16739 1-394): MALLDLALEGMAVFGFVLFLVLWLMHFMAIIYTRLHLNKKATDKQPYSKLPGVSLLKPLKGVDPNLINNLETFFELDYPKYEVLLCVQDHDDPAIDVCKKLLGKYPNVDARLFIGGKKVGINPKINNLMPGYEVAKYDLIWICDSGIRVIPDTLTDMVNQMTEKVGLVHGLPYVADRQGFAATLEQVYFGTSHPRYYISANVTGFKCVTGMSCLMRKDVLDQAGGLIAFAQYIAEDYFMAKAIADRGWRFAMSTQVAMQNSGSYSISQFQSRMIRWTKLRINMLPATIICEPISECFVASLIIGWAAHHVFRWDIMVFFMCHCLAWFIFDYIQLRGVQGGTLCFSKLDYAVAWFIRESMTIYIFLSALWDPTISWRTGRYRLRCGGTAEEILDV
- Protocol details: GCS enzyme inhibition assay (A549 cell lysate, NBD C6-ceramide, HPLC fluorescence)
- Run parameters: inhibitory activity against GCS, 37° C., 90 minutes
IC50 for assorted compounds
Observable: IC50 (nM)

>  <Compound>
CC(C)(C)c1cccc(-c2ccc3c(c2)OCC(C)(C)C3NC(=O)O[C@@H]2CN3CCC2CC3)c1 (stereo partly drawn) [Example 152]

>  <Observable>
IC50

>  <Numeric result>
0.91

$$$$
>  <Compound>
CC1(C)COc2cc(-c3cccc(OC(F)(F)F)c3)ccc2C1NC(=O)O[C@@H]1CN2CCC1CC2 (stereo partly drawn) [Example 105]

>  <Observable>
IC50

>  <Numeric result>
1.11

$$$$
>  <Compound>
CC1(C)COc2cc(-c3ccc(F)c(Cl)c3)ccc2C1NC(=O)O[C@@H]1CN2CCC1CC2 (stereo partly drawn) [Example 236]

>  <Observable>
IC50

>  <Numeric result>
0.75

$$$$

---

- Study system: glucosylceramide synthase (GCS) (Homo sapiens)
- Construct: The obtained supernatant was used
- Protocol details: GCS enzyme inhibition assay (A549 cell lysate, NBD C6-ceramide, HPLC fluorescence)
- Run parameters: inhibitory activity against GCS, 37° C., 90 minutes
pIC50: −log10 of the molar value.

>  <Molecule>
CN1CCOc2cc(-c3ccc4c(c3)OCCC4NC(=O)O[C@@H]3CN4CCC3CC4)ccc21 (some centres unmarked)

>  <Study system>
glucosylceramide synthase (GCS) (Homo sapiens)

>  <pIC50>
8.88

$$$$
>  <Molecule>
CC1(C)COc2cc(/C=C/c3ccsc3)ccc2C1NC(=O)O[C@@H]1CN2CCC1CC2 (some centres unmarked)

>  <Study system>
glucosylceramide synthase (GCS) (Homo sapiens)

>  <pIC50>
8.90

$$$$
>  <Molecule>
COc1cc(F)ccc1-c1ccc2c(c1)OCC(C)(C)C2NC(=O)O[C@@H]1CN2CCC1CC2 (some centres unmarked)

>  <Study system>
glucosylceramide synthase (GCS) (Homo sapiens)

>  <pIC50>
9.15

$$$$
>  <Molecule>
CCOc1ccc2cc(-c3ccc4c(c3)OCC(C)(C)C4NC(=O)O[C@@H]3CN4CCC3CC4)ccc2c1 (some centres unmarked)

>  <Study system>
glucosylceramide synthase (GCS) (Homo sapiens)

>  <pIC50>
8.95

$$$$
>  <Molecule>
COc1ccccc1-c1ccc2c(c1)OCCC2NC(=O)O[C@@H]1CN2CCC1CC2 (some centres unmarked)

>  <Study system>
glucosylceramide synthase (GCS) (Homo sapiens)

>  <pIC50>
8.85

$$$$
>  <Molecule>
CN(C)c1cccc(-c2ccc3c(c2)SCCC3NC(=O)O[C@@H]2CN3CCC2CC3)c1 (some centres unmarked)

>  <Study system>
glucosylceramide synthase (GCS) (Homo sapiens)

>  <pIC50>
9.19

$$$$
>  <Molecule>
CC1(C)COc2cc(-c3cc4ccccc4o3)ccc2C1NC(=O)O[C@@H]1CN2CCC1CC2 (some centres unmarked)

>  <Study system>
glucosylceramide synthase (GCS) (Homo sapiens)

>  <pIC50>
8.91

$$$$
>  <Molecule>
O=C(NC1CCOc2cc(-c3coc4ccccc34)ccc21)O[C@@H]1CN2CCC1CC2 (some centres unmarked)

>  <Study system>
glucosylceramide synthase (GCS) (Homo sapiens)

>  <pIC50>
9.24

$$$$
>  <Molecule>
CCOc1cccc(-c2ccc3c(c2)OCCC3NC(=O)O[C@@H]2CN3CCC2CC3)c1 (some centres unmarked)

>  <Study system>
glucosylceramide synthase (GCS) (Homo sapiens)

>  <pIC50>
9.17

$$$$
>  <Molecule>
COc1cc(F)c(-c2ccc3c(c2)OCC(C)(C)C3NC(=O)O[C@@H]2CN3CCC2CC3)cc1F (some centres unmarked)

>  <Study system>
glucosylceramide synthase (GCS) (Homo sapiens)

>  <pIC50>
9.10

$$$$
>  <Molecule>
COc1ccc2cc(-c3ccc4c(c3)OCC(C)(C)C4NC(=O)O[C@@H]3CN4CCC3CC4)ccc2c1 (some centres unmarked)

>  <Study system>
glucosylceramide synthase (GCS) (Homo sapiens)

>  <pIC50>
9.16

$$$$
>  <Molecule>
COc1c(C)cc(-c2cc3c(cc2F)C(NC(=O)O[C@@H]2CN4CCC2CC4)C(C)(C)CO3)cc1C (some centres unmarked)

>  <Study system>
glucosylceramide synthase (GCS) (Homo sapiens)

>  <pIC50>
8.93

$$$$
>  <Molecule>
CC1(C)COc2cc(-c3ccc4nsnc4c3)ccc2C1NC(=O)O[C@@H]1CN2CCC1CC2 (some centres unmarked)

>  <Study system>
glucosylceramide synthase (GCS) (Homo sapiens)

>  <pIC50>
9.20

$$$$
>  <Molecule>
COc1ccc(-c2ccc3c(c2)OCC(C)(C)C3NC(=O)O[C@@H]2CN3CCC2CC3)cn1 (some centres unmarked)

>  <Study system>
glucosylceramide synthase (GCS) (Homo sapiens)

>  <pIC50>
9.09

$$$$

---

- Test system: GM1 production in Jurkat cells
- Protocol details: cells
- Assay type: cell-based
- Run parameters: Homo sapiens, Jurkat, 72 h

>  <Molecule>
CC1(C)COc2cc(-c3cccc(Cl)c3Cl)ccc2C1NC(=O)O[C@@H]1CN2CCC1CC2 (some centres unmarked)

>  <IC50, nM>
7.1

$$$$
>  <Molecule>
O=C(NC1CCOc2cc(-c3cc4ccccc4o3)ccc21)O[C@@H]1CN2CCC1CC2 (some centres unmarked)

>  <IC50, nM>
15.6

$$$$
>  <Molecule>
CN1C(=O)COc2ccc(-c3ccc4c(c3)OCC(C)(C)C4NC(=O)O[C@@H]3CN4CCC3CC4)cc21 (some centres unmarked)

>  <IC50, nM>
8.58

$$$$
>  <Molecule>
COc1cccc(OC)c1-c1ccc2c(c1)OCCC2NC(=O)O[C@@H]1CN2CCC1CC2 (some centres unmarked)

>  <IC50, nM>
7.18

$$$$
>  <Molecule>
CC(C)Oc1ccc(-c2cc3c(cc2F)C(NC(=O)O[C@@H]2CN4CCC2CC4)C(C)(C)CO3)cc1Cl (some centres unmarked)

>  <IC50, nM>
7.3

$$$$

---

- Tested on: GM1 production in Jurkat cells
- Protocol details: cells
- Type: cell-based
- Run parameters: Homo sapiens, Jurkat, 72 h
pIC50: −log10 of the molar value.
Reported pIC50 values for the following compounds.

>  <Compound>
CC1(C)COc2cc(-c3ccc(OCc4ccccc4)cc3)ccc2C1NC(=O)O[C@@H]1CN2CCC1CC2 (stereo partly drawn)

>  <pIC50>
8.89

$$$$
>  <Compound>
CC1(C)COc2ccc(-c3cccc(F)c3)cc2C1NC(=O)O[C@@H]1CN2CCC1CC2 (stereo partly drawn)

>  <pIC50>
7.18

$$$$
>  <Compound>
CCOc1ccc(-c2cc3c(cc2F)C(NC(=O)O[C@@H]2CN4CCC2CC4)C(C)(C)CO3)cc1 (stereo partly drawn)

>  <pIC50>
8.92

$$$$
>  <Compound>
CC1(C)COc2cc(-c3cc(C(F)(F)F)ccc3Cl)ccc2C1NC(=O)O[C@@H]1CN2CCC1CC2 (stereo partly drawn)

>  <pIC50>
9.52

$$$$
>  <Compound>
CC1(NC(=O)O[C@@H]2CN3CCC2CC3)CCOc2cc(-c3ccc4c(c3)OC(F)(F)O4)ccc21 (stereo partly drawn)

>  <pIC50>
8.51

$$$$
>  <Compound>
CC1(C)COc2cc(-c3cccc(C(F)F)c3)ccc2C1NC(=O)O[C@@H]1CN2CCC1CC2 (stereo partly drawn)

>  <pIC50>
9.26

$$$$
>  <Compound>
Cc1ccc(-c2ccc3c(c2)OCC(C)(C)C3NC(=O)O[C@@H]2CN3CCC2CC3)cc1Cl (stereo partly drawn)

>  <pIC50>
8.89

$$$$
>  <Compound>
CC1(C)COc2cc(-c3ccc(F)c(C(F)(F)F)c3)ccc2C1NC(=O)O[C@@H]1CN2CCC1CC2 (stereo partly drawn)

>  <pIC50>
8.66

$$$$
>  <Compound>
COc1cccc(-c2ccc3c(c2)OCCC3(C)NC(=O)O[C@@H]2CN3CCC2CC3)c1 (stereo partly drawn)

>  <pIC50>
8.01

$$$$
>  <Compound>
COCCOc1ccccc1-c1ccc2c(c1)OCCC2NC(=O)O[C@@H]1CN2CCC1CC2 (stereo partly drawn)

>  <pIC50>
7.47

$$$$
>  <Compound>
Cn1ncc2c(-c3ccc4c(c3)OCC(C)(C)C4NC(=O)O[C@@H]3CN4CCC3CC4)cccc21 (stereo partly drawn)

>  <pIC50>
9.26

$$$$
>  <Compound>
O=C(NC1CCOc2cc(-c3ccc(F)c(C(F)(F)F)c3)ccc21)O[C@@H]1CN2CCC1CC2 (stereo partly drawn)

>  <pIC50>
7.97

$$$$
>  <Compound>
CC1(C)COc2cc(-c3cccc4ccccc34)ccc2C1NC(=O)O[C@@H]1CN2CCC1CC2 (stereo partly drawn)

>  <pIC50>
8.92

$$$$
>  <Compound>
O=C(NC1CCSc2cc(-c3ccc4c(c3)OC(F)(F)O4)ccc21)O[C@@H]1CN2CCC1CC2 (stereo partly drawn)

>  <pIC50>
7.42

$$$$
>  <Compound>
Cc1ccc(-c2ccc3c(c2)OCC(C)(C)C3NC(=O)O[C@@H]2CN3CCC2CC3)c(F)n1 (stereo partly drawn)

>  <pIC50>
7.53

$$$$
>  <Compound>
CC1(C)COc2cc(-c3ccc4nsnc4c3)ccc2C1NC(=O)O[C@@H]1CN2CCC1CC2 (stereo partly drawn)

>  <pIC50>
9.51

$$$$
>  <Compound>
COc1ccc(-c2ccc3c(c2)OCC(C)(C)C3NC(=O)O[C@@H]2CN3CCC2CC3)c(OC)c1 (stereo partly drawn)

>  <pIC50>
8.41

$$$$
>  <Compound>
COc1cc2c(cc1-c1ccc(OC(C)C)c(Cl)c1)OCC(C)(C)C2NC(=O)O[C@@H]1CN2CCC1CC2 (stereo partly drawn)

>  <pIC50>
8.06

$$$$
>  <Compound>
CC1(C)COc2cc(-c3ccc(OC(F)(F)F)cc3)ccc2C1NC(=O)O[C@@H]1CN2CCC1CC2 (stereo partly drawn)

>  <pIC50>
8.95

$$$$
>  <Compound>
CC1(C)COc2cc(-c3ccc(C4CCOCC4)cc3)ccc2C1NC(=O)O[C@@H]1CN2CCC1CC2 (stereo partly drawn)

>  <pIC50>
9.33

$$$$
>  <Compound>
COc1ccc(Cl)c(-c2ccc3c(c2)OCCC3NC(=O)O[C@@H]2CN3CCC2CC3)c1 (stereo partly drawn)

>  <pIC50>
8.93

$$$$
>  <Compound>
COc1ccc(OC)c(-c2ccc3c(c2)OCC(C)(C)C3NC(=O)O[C@@H]2CN3CCC2CC3)c1 (stereo partly drawn)

>  <pIC50>
9.07

$$$$
>  <Compound>
CN(C)c1cccc(-c2ccc3c(c2)OCCC3NC(=O)O[C@@H]2CN3CCC2CC3)c1 (stereo partly drawn)

>  <pIC50>
9.35

$$$$
>  <Compound>
Cc1cc(-c2ccc3c(c2)OCCC3NC(=O)O[C@@H]2CN3CCC2CC3)ccc1N1CCOCC1 (stereo partly drawn)

>  <pIC50>
7.63

$$$$
